# Tested on: 439559-082-T-J2-PDC spheroids viability
# TEST NAME: Anticancer human tumor 439559-082-T-J2-PDC patient-derived colon adenocarcinoma cell line growth inhibition [GQUAD]
# TEST CONTEXT: second compound 0.316 µM; first compound 0.316 µM; stronger effect = lower value
Property: viability, T/C; scope: individual molecules
Number only, in %; omit the unit.

Below: 3 molecules and their reported viability, T/C.
COc1cc(C2c3cc4c(cc3C(OC3OC5COC(C)OC5C(O)C3O)C3COC(=O)C23)OCO4)cc(OC)c1O (configuration not stated) + Cc1cnc(CNC(=O)c2c(=O)c3ccc(N4CCCN(C)CC4)nc3n3c2sc2ccccc23)cn1 :: 81.4
CC1COCCN1c1cc(C2(O)CC3CCC(C2)O3)c2cnn(-c3ccn[nH]3)c2n1 (configuration not stated) + Cc1cnc(CNC(=O)c2c(=O)c3ccc(N4CCCN(C)CC4)nc3n3c2sc2ccccc23)cn1 :: 54.3
C=CC(=O)N1CCN(c2nc(=O)n(-c3c(C)ccnc3C(C)C)c3nc(-c4c(O)cccc4F)c(F)cc23)C(C)C1 (configuration not stated) + Cc1cnc(CNC(=O)c2c(=O)c3ccc(N4CCCN(C)CC4)nc3n3c2sc2ccccc23)cn1 :: 84.9

Exercise: viability, T/C lookup needed for CC(=O)O[C@H]1C(=O)[C@@]2(C)[C@H]([C@H](OC(=O)c3ccccc3)[C@]3(O)C[C@H](OC(=O)[C@H](O)[C@@H](NC(=O)c4ccccc4)c4ccccc4)C(C)=C1C3(C)C)[C@]1(OC(C)=O)CO[C@@H]1C[C@@H]2O + Cc1cnc(CNC(=O)c2c(=O)c3ccc(N4CCCN(C)CC4)nc3n3c2sc2ccccc23)cn1 , thanks.
Key: 78.2

Exercise: # query: viability, T/C of entry O=c1[nH]cc(F)c(=O)[nH]1 + CN(C)c1ccc(Nc2c3ccc(NC(=O)CCN4CCCC4)cc3nc3cc(NC(=O)CCN4CCCC4)ccc23)cc1
Key: 85.9

Exercise: Field request: viability, T/C | item: COc1ncnc(C2CC2)c1-c1ncc2cnn(Cc3ccc(-c4nc(C(F)(F)F)cn4C(C)C)cc3)c2n1 + Cc1[nH]c2ccc(F)cc2c1-c1nc2c3cccnc3c3ncccc3c2[nH]1
Key: 103

Exercise: Name the reported viability, T/C value associated with the molecule CC1COCCN1c1cc(C2(S(C)(=N)=O)CC2)nc(-c2ccnc3[nH]ccc23)n1 (configuration not stated) + CN(C)c1ccc(Nc2c3ccc(NC(=O)CCN4CCCC4)cc3nc3cc(NC(=O)CCN4CCCC4)ccc23)cc1
Key: 97.8

* * *

# System: 439559-082-T-J2-PDC spheroids viability
# TEST NAME: Anticancer human tumor 439559-082-T-J2-PDC cell line growth inhibition [GQUAD];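 note: spheroids exposed to the agents for 7 days before readout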
# TEST CONTEXT: curve of first compound; second compound 0.316 µM
PROPERTY NAME: IC50

// worked examples, IC50 included
CC(C)n1c(=O)n(C)c2cnc3cc(F)c(-c4ccc(OCCCN5CCCCC5)nc4)cc3c21 + Cc1[nH]c2ccc(F)cc2c1-c1nc2c3cccnc3c3ncccc3c2[nH]1 :: > 10 µM
COc1cccc2c1C(=O)c1c(O)c3c(c(O)c1C2=O)CC(O)(C(=O)CO)CC3OC1CC(N)C(O)C(C)O1 (stereo not given) + Cc1[nH]c2ccc(F)cc2c1-c1nc2c3cccnc3c3ncccc3c2[nH]1 :: > 10 µM
COc1ncnc(C2CC2)c1-c1ncc2cnn(Cc3ccc(-c4nc(C(F)(F)F)cn4C(C)C)cc3)c2n1 + CN(C)c1ccc(Nc2c3ccc(NC(=O)CCN4CCCC4)cc3nc3cc(NC(=O)CCN4CCCC4)ccc23)cc1 :: > 10 µM
CCc1c2c(nc3ccc(O)cc13)-c1cc3c(c(=O)n1C2)COC(=O)[C@]3(O)CC + Cc1[nH]c2ccc(F)cc2c1-c1nc2c3cccnc3c3ncccc3c2[nH]1 :: > 0.316 µM

Exercise: // map CC(C)n1c(=O)n(C)c2cnc3cc(F)c(-c4ccc(OCCCN5CCCCC5)nc4)cc3c21 + CN(C)c1ccc(Nc2c3ccc(NC(=O)CCN4CCCC4)cc3nc3cc(NC(=O)CCN4CCCC4)ccc23)cc1 to recorded IC50 (system: 439559-082-T-J2-PDC spheroids viability)
Key: > 10 µM

* * *

# Tested on: 439559-082-T-J2-PDC spheroids viability
# TEST NAME: Anticancer human tumor 439559-082-T-J2-PDC cell line growth inhibition [GQUAD];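 note: spheroids exposed to the agents for 7 days before readout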
# TEST CONTEXT: curve of first compound; second compound 0.0316 µM
We begin with a simple list: items and their reported IC50.

See these solved cases before continuing.
CC[C@@]1(O)C(=O)OCc2c1cc1n(c2=O)Cc2cc3c(CN(C)C)c(O)ccc3nc2-1 + Cc1[nH]c2ccc(F)cc2c1-c1nc2c3cccnc3c3ncccc3c2[nH]1 :: > 316 nM
CC[C@@]1(O)C(=O)OCc2c1cc1n(c2=O)Cc2cc3c(CN(C)C)c(O)ccc3nc2-1 + Cc1cnc(CNC(=O)c2c(=O)c3ccc(N4CCCN(C)CC4)nc3n3c2sc2ccccc23)cn1 :: > 316 nM

Now look at this entry.
Exercise: Can you share its IC50? I mean this molecule: Cn1ncnc1[C@H]1c2n[nH]c(=O)c3cc(F)cc(c23)N[C@@H]1c1ccc(F)cc1 + Cc1[nH]c2ccc(F)cc2c1-c1nc2c3cccnc3c3ncccc3c2[nH]1
Key: > 316 nM

* * *

Here the recorded pIC50 is given for each entry.
# Test system: 439559-082-T-J2-PDC spheroids viability
# TEST NAME: Anticancer human tumor 439559-082-T-J2-PDC cell line growth inhibition [GQUAD];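 note: spheroids exposed to the agents for 7 days before readout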
# TEST CONTEXT: curve of first compound; second compound 0.0316 µM
Note on units: pIC50 is unitless, being -log10 of a concentration expressed in mol/L.

Exercise: Quick one: pIC50 of Nc1ccn(C2OC(CO)C(O)C2(F)F)c(=O)n1 (stereo not given) + Cc1[nH]c2ccc(F)cc2c1-c1nc2c3cccnc3c3ncccc3c2[nH]1 ?
Key: 6.43

Exercise: Consider the compound C=CCn1c(=O)c2cnc(Nc3ccc(N4CCN(C)CC4)cc3)nc2n1-c1cccc(C(C)(C)O)n1 + CN(C)c1ccc(Nc2c3ccc(NC(=O)CCN4CCCC4)cc3nc3cc(NC(=O)CCN4CCCC4)ccc23)cc1 and give its measured pIC50.
Key: 5.33

* * *

Measured viability, T/C values are reported for all entries that follow.
# Tested on: 439559-082-T-J2-PDC spheroids viability
# TEST NAME: Anticancer human tumor 439559-082-T-J2-PDC cell line growth inhibition [GQUAD];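 note: spheroids exposed to the agents for 7 days before readout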;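 for viability, T/C: percent of luminescence signal in DMSO vehicle wells taken as 100% viability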
# TEST CONTEXT: second compound 3.16 µM; first compound 0.316 µM; stronger effect = lower value
# Description: DNA G-quadruplex Stabilizer Agents in Combinations in Complex Spheroids A high-throughput screen of multi-cell type tumor spheroids was designed to identify active combinations of DNA G-quadruplex stabilizer agents and targeted small molecules. […] Compounds. […] If the clinical Cmax for an agent had not been determined, the highest concentration tested was 10 microM. […]
All answers are understood in %, so give the number only.

Example cases with answers are listed next.
CC1COCCN1c1cc(-c2ccnn2C)c2ccnc(-c3ccn[nH]3)c2n1 (configuration not stated) + Cc1cnc(CNC(=O)c2c(=O)c3ccc(N4CCCN(C)CC4)nc3n3c2sc2ccccc23)cn1 :: 31.4
Cc1[nH]c2ccccc2c1CCNCc1ccc(/C=C/C(=O)NO)cc1 + Cc1cnc(CNC(=O)c2c(=O)c3ccc(N4CCCN(C)CC4)nc3n3c2sc2ccccc23)cn1 :: 53.9
C#Cc1c(F)ccc2cc(O)cc(-c3ncc4c(N5CC6CCC(C5)N6)nc(OCC56CCCN5CC(F)C6)nc4c3F)c12 (configuration not stated) + Cc1cnc(CNC(=O)c2c(=O)c3ccc(N4CCCN(C)CC4)nc3n3c2sc2ccccc23)cn1 :: 56.7
CC1COCCN1c1cc(C2(O)CC3CCC(C2)O3)c2cnn(-c3ccn[nH]3)c2n1 (configuration not stated) + Cc1[nH]c2ccc(F)cc2c1-c1nc2c3cccnc3c3ncccc3c2[nH]1 :: 63.5
Cc1[nH]c2ccccc2c1CCNCc1ccc(/C=C/C(=O)NO)cc1 + CN(C)c1ccc(Nc2c3ccc(NC(=O)CCN4CCCC4)cc3nc3cc(NC(=O)CCN4CCCC4)ccc23)cc1 :: 60.8

Exercise: For the molecule shown here, COc1ccc([C@@H](O)c2cc(-c3ncnc4cc(N5CCOCC5)ccc34)c(F)cc2Cl)nn1 + Cc1[nH]c2ccc(F)cc2c1-c1nc2c3cccnc3c3ncccc3c2[nH]1 , give the reported viability, T/C.
Key: 83.2

Exercise: Looking for the measured viability, T/C of O=c1[nH]cc(F)c(=O)[nH]1 + CN(C)c1ccc(Nc2c3ccc(NC(=O)CCN4CCCC4)cc3nc3cc(NC(=O)CCN4CCCC4)ccc23)cc1 , can you help?
Key: 85.5

* * *

# Test system: 439559-082-T-J2-PDC spheroids viability
# TEST NAME: Anticancer human tumor 439559-082-T-J2-PDC cell line growth inhibition [GQUAD];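 note: spheroids exposed to the agents for 7 days before readout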;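 for viability, T/C: percent of luminescence signal in DMSO vehicle wells taken as 100% viability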
# TEST CONTEXT: second compound 0.1 µM; first compound 3.16 µM; stronger effect = lower value
Listed here are compounds together with their documented viability, T/C.

Use these answered entries as a reference point.
O=c1[nH]cc(F)c(=O)[nH]1 + Cc1cnc(CNC(=O)c2c(=O)c3ccc(N4CCCN(C)CC4)nc3n3c2sc2ccccc23)cn1 :: 68.7%
COc1ccc([C@@H](O)c2cc(-c3ncnc4cc(N5CCOCC5)ccc34)c(F)cc2Cl)nn1 + Cc1cnc(CNC(=O)c2c(=O)c3ccc(N4CCCN(C)CC4)nc3n3c2sc2ccccc23)cn1 :: 70.4%
COc1cccc2c1C(=O)c1c(O)c3c(c(O)c1C2=O)CC(O)(C(=O)CO)CC3OC1CC(N)C(O)C(C)O1 (centres undefined) + Cc1[nH]c2ccc(F)cc2c1-c1nc2c3cccnc3c3ncccc3c2[nH]1 :: 69.5%

Attention now turns to another entry.
Exercise: Field request: viability, T/C | item: CC(=O)O[C@H]1C(=O)[C@@]2(C)[C@H]([C@H](OC(=O)c3ccccc3)[C@]3(O)C[C@H](OC(=O)[C@H](O)[C@@H](NC(=O)c4ccccc4)c4ccccc4)C(C)=C1C3(C)C)[C@]1(OC(C)=O)CO[C@@H]1C[C@@H]2O + CN(C)c1ccc(Nc2c3ccc(NC(=O)CCN4CCCC4)cc3nc3cc(NC(=O)CCN4CCCC4)ccc23)cc1
Key: 40.3%
